- Tested on: Human immunodeficiency virus 1
- testSummary: Antiviral activity against HIV-1 harboring Y188L mutant infected in human MT4 cells assessed as protection against virus-induced cytopathic effect incubated for 5 days by MTT assay
- Format: functional, organism-based
- experimentalContext: mt4
reportedProperty: pEC50
A value of pEC50 is the negative decimal logarithm of a concentration given in moles per litre.

Which pEC50 reading was recorded for the compound "Cc1cc(-c2ccncc2)cc(C)c1Oc1nc(NC2CCN(Cc3ccc(S(=O)(=O)NCCO)cc3)CC2)ncc1CO" ?
6.04

---

Items are presented alongside their recorded CC50 at 120 h.
- testSummary: Cytotoxicity against human MT4 cells assessed as reduction in cell viability incubated for 5 days by MTT assay
- Assay type: toxicity, cell-based
- experimentalContext: MT4 cells, time 5 day

Worked examples follow.
- molecule: "Cc1cc(-c2ccncc2)cc(C)c1Oc1nc(NC2CCN(Cc3ccc(S(N)(=O)=O)cc3)CC2)ncc1CO"
  CC50 at 120 h: "> 218 µM"
- molecule: "Cc1cc(-c2ccncc2)cc(C)c1Oc1nc(NC2CCN(Cc3cccc(C(N)=O)c3)CC2)ncc1CO"
  CC50 at 120 h: "> 232 µM"
- molecule: "Cc1ccnc2c1NC(=O)c1cccnc1N2C1CC1 [NEVIRAPINE]"
  CC50 at 120 h: "> 15.3 µM"
- molecule: "CNC(=O)c1ccc(CN2CCC(Nc3ncc(CO)c(Oc4c(C)cc(-c5ccncc5)cc4C)n3)CC2)cc1"
  CC50 at 120 h: "> 226 µM"

Can you look up the measured CC50 at 120 h of O=C1Nc2ccc(Cl)cc2[C@@](C#CC2CC2)(C(F)(F)F)O1 [EFAVIRENZ] for me?
> 6.35 µM

How about Cc1cc(C#N)cc(C)c1Oc1nc(Nc2ccc(C#N)cc2)nc(N)c1Br [ETRAVIRINE] ?
> 4.61 µM

Likewise for "Cc1cc(-c2ccncc2)cc(C)c1Oc1nc(NC2CCN(Cc3ccc(C(N)=O)cc3)CC2)ncc1CO" ?
> 232 µM

Can you handle "CNS(=O)(=O)c1ccc(CN2CCC(Nc3ncc(CO)c(Oc4c(C)cc(-c5ccncc5)cc4C)n3)CC2)cc1" next?
> 212 µM

One more molecule: "Cc1cc(-c2ccncc2)cc(C)c1Oc1nc(NC2CCN(Cc3ccc(C(=O)NCCO)cc3)CC2)ncc1CO"
> 215 µM
